subjectOfTest: CYP3A4 (Homo sapiens)
Sequence (P08684 whole entry): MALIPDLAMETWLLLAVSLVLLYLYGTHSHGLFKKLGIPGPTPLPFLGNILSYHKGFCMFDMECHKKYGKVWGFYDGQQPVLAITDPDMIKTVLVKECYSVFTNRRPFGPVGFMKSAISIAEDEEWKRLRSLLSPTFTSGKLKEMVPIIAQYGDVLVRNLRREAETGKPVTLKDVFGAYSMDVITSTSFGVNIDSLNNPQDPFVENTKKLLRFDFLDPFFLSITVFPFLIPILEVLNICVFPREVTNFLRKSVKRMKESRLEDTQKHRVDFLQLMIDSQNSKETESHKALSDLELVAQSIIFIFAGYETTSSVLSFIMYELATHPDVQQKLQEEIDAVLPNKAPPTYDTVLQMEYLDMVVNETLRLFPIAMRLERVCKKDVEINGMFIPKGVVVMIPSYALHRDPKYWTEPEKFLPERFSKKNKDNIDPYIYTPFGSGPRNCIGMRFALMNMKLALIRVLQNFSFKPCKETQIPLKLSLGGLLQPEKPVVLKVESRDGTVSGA
experimentDescription: Determination of IC50 against CYP3A4 by measurement of inhibition of midazolam metabolism (human liver microsomes, 1-hydroxymidazolam by LC-MS/MS)
Type: biochemical
Parameters: 0.1 mg/mL human liver microsomes
settings: 2 μM midazolam, 0.1 mg/mL human liver microsomes
Method: 3. Determination of IC50 Against CYP3A4 by Measurement of Inhibition of Midazolam Metabolism This assay was performed using a standard 96 well plate design. […] Quantitation of metabolite peak area ratio against internal standard is determined by LC-MS/MS analysis. The production of 1-hydroxymidazolam from midazolam metabolism is determined after incubation for eight minutes by comparison to a standard curve generated for the metabolite. […]
IC50 vs 20 nM: less than gives yes (1); not less than gives no (0).

Examples from the recorded data:
O=C(NCCc1ccccn1)c1ccccc1S(=O)(=O)Nc1cccnc1 : no (0)
COc1cncc(NS(=O)(=O)c2ccccc2C(=O)N(C)Cc2ccccc2F)c1 : yes (1)

For this compound, is IC50 lower than 20 nM? "COc1cncc(NS(=O)(=O)c2ccccc2C(=O)NCc2ccc(F)cc2F)c1"
yes (1)

For this compound, is IC50 lower than 20 nM? "CC(C)(NC(=O)c1ccccc1S(=O)(=O)Nc1cccnc1)C1CC1"
no (0)

For this compound, is IC50 lower than 20 nM? "Cc1cncc(NS(=O)(=O)c2ccccc2C(=O)NCCc2ccccc2C)c1"
yes (1)

For this compound, is IC50 lower than 20 nM? "CC(C)(C)OC(=O)N1CC2(CCN(C(=O)c3ccccc3S(=O)(=O)Nc3cccnc3)CC2)C1"
no (0)

For this compound, is IC50 lower than 20 nM? "Cc1cncc(NS(=O)(=O)c2ccccc2C(=O)NCc2ccc(F)c(C(F)(F)F)c2)c1"
yes (1)

Data credit: patent US7868026B2
